TEST_TARGET: Cytochrome P450 2C19 (Homo sapiens) (UniProt P33261)
Sequence (P33261 whole entry, looked up): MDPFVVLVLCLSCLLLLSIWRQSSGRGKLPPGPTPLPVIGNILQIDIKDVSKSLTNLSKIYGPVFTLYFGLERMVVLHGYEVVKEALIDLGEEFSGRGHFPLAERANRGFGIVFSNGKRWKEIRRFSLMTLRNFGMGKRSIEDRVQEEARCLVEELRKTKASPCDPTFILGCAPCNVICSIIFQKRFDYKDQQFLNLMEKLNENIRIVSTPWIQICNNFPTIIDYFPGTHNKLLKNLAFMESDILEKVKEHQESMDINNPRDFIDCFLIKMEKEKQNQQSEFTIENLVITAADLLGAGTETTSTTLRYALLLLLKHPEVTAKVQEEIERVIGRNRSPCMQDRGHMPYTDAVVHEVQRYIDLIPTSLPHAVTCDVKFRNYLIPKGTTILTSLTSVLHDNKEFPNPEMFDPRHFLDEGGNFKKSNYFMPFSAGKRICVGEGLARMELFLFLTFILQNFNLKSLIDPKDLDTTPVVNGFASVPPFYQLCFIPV
ASSAY: Cytochrome panel assay with activity outcomes
EXPERIMENTAL_PARAMETERS: recombinant CYP, pro-luciferin dealkylation, luminescence, p450-cyp2c19; series mostly up to 57.1 µM
Out of some 16,000 compounds screened, about 5,800 (36%) were called active. Not shown: some 23% with an inconclusive outcome. Calls come from the whole dose curve; as a rule, active = well fitted curve in the direction sought with a large enough effect; inconclusive = small, poorly fitted or top-dose-only effect, or effect the other way; inactive = no such curve, though single readings can be large or run the other way. Some of the results follow.
Just give me one of these, please: active, inactive

// query Would you mind telling me which call this test gave CC1CCN(C(=O)CSc2nc3cccnc3n2C)CC1 ?
// result active

// query Would you mind telling me which call this test gave O=[N+]([O-])c1ccc(C2CCCC/C2=N\OCc2cccc(F)c2)c([N+](=O)[O-])c1 (stereo not given) ?
// result active

// query Would you mind telling me which call this test gave CCN1CCC[C@H]1CNC(=O)c1cc(S(N)(=O)=O)ccc1OC ?
// result inactive

// query Would you mind telling me which call this test gave CCN(CC)S(=O)(=O)c1ccc(OC)c(NC(=O)CSc2ccccc2)c1 ?
// result active

// query Would you mind telling me which call this test gave Cn1c(SCC(=O)N2CCN(S(=O)(=O)c3ccccc3)CC2)nc2ccccc21 ?
// result active

###

TEST_TARGET: Cytochrome P450 2C19 (Homo sapiens)
ASSAY: Cytochrome panel assay with activity outcomes
EXPERIMENTAL_PARAMETERS: recombinant CYP, pro-luciferin dealkylation, luminescence, p450-cyp2c19; series mostly up to 57.1 µM
Screen size: about 16,000 compounds; about 5,800 (36%) were called active. Not shown: some 23% with an inconclusive outcome. Calls follow the shape of the dose curve; as a rule, active = well fitted curve in the direction sought with a large enough effect; inconclusive = small, poorly fitted or top-dose-only effect, or effect the other way; inactive = no such curve, though single readings can be large or run the other way. The list shows a part of the results.
Just give me one of these, please: active, inactive

// query Would you mind telling me which call this test gave CNC(C)c1cc(OC)ccc1OC (stereo not given) ?
// result inactive

// query Would you mind telling me which call this test gave Cc1ccc(S(=O)(=O)Nc2ccccc2C=O)cc1 ?
// result active

// query Would you mind telling me which call this test gave COc1ccc(NC(=O)N2CC3(CCN(C(=O)c4cccn4C)CC3)C2)cc1 ?
// result inactive

// query Would you mind telling me which call this test gave COCCN(C(=O)Nc1ccc(OC)cc1OC)C1CCN(C(C)=O)CC1 ?
// result inactive

// query Would you mind telling me which call this test gave CCCC(=O)Nc1cc(-c2cn3cccnc3n2)ccc1OC ?
// result inactive

// query Would you mind telling me which call this test gave O=C(O)c1ccc2c3c1cccc3c(=O)n1c3ccccc3nc21 ?
// result active

// query Would you mind telling me which call this test gave COc1cccc(OCCCOc2ccccc2C(C)C)c1 ?
// result active

// query Would you mind telling me which call this test gave COc1cccc(OC)c1OCCCCN1CCCC1 ?
// result inactive

// query Would you mind telling me which call this test gave CN(C)CCCN1c2ccc3ccccc3c2Sc2cccc(Cl)c21 ?
// result active

// query Would you mind telling me which call this test gave Cn1ccc2cc3c(cc21)CCN3C(=O)Nc1cccnc1 ?
// result inactive

// query Would you mind telling me which call this test gave COc1ccc(NC(=O)NCc2cccn2C)c(OC)c1 ?
// result active

// query Would you mind telling me which call this test gave CNCC[C@H](Oc1ccccc1C)c1ccccc1 ?
// result inactive

// query Would you mind telling me which call this test gave Cc1ccccc1OCCNC(=S)Nc1ccccc1 ?
// result active

// query Would you mind telling me which call this test gave Cc1ccc(=O)n(-c2ccccc2)c1 ?
// result inactive

// query Would you mind telling me which call this test gave CCC(=O)c1ccc2c(c1)N(CCCN(C)C)c1ccccc1S2 ?
// result inactive

// query Would you mind telling me which call this test gave COc1ccc(NC(=O)Cn2cccc2)c(OC)c1 ?
// result active

// query Would you mind telling me which call this test gave CNC(=S)NNC(=O)COc1ccccc1C ?
// result inactive

// query Would you mind telling me which call this test gave CCOC(=O)CC(Nc1nc(N2CCOCC2)nc(N2CCOCC2)n1)c1ccccc1Cl (stereo not given) ?
// result active

// query Would you mind telling me which call this test gave O=C(COc1cccc(NC(=O)c2cccc([N+](=O)[O-])c2)c1)c1ccc(Br)cc1 ?
// result active

// query Would you mind telling me which call this test gave O=C(Cc1cccs1)N1CCC(c2nc3c(nnn3Cc3ccccc3Cl)c(=O)[nH]2)CC1 ?
// result active

// query Would you mind telling me which call this test gave C[C@@H](CN1c2ccccc2Sc2ccccc21)N(C)C ?
// result inactive

// query Would you mind telling me which call this test gave CN(C)CCCN1c2ccccc2Sc2ccc3ccccc3c21 ?
// result active

// query Would you mind telling me which call this test gave COc1ccc(CNc2ncncc2-c2cccc(C#N)c2)c(OC)c1 ?
// result active

// query Would you mind telling me which call this test gave Cc1cc(O)c(/C=N/Nc2cccc(Cl)c2)c(=O)o1 ?
// result active

// query Would you mind telling me which call this test gave COc1ccc(NC(=O)N2CCC3(CC2)CCN(C(=O)c2cccn2C)CC3)cc1 ?
// result inactive

###

TEST_TARGET: Cytochrome P450 2C19 (Homo sapiens)
ASSAY: Cytochrome panel assay with activity outcomes
EXPERIMENTAL_PARAMETERS: recombinant CYP, pro-luciferin dealkylation, luminescence, p450-cyp2c19; series mostly up to 57.1 µM
Out of some 16,000 compounds screened, about 5,800 (36%) were called active. About 23% were inconclusive and are not listed. Calls come from the whole dose curve; as a rule, active = well fitted curve in the direction sought with a large enough effect; inconclusive = small, poorly fitted or top-dose-only effect, or effect the other way; inactive = no such curve, though single readings can be large or run the other way. This is one part of the list.
Just give me one of these, please: active, inactive

// query Would you mind telling me which call this test gave CCNS(=O)(=O)c1ccc(NC(=O)c2cc(C(F)(F)F)nn2C)cc1 ?
// result inactive

// query Would you mind telling me which call this test gave Cn1nccc1C(=O)Nc1ccc(Cl)cc1 ?
// result active

// query Would you mind telling me which call this test gave CCN1C(=O)/C(=C/C=C2/SCCN2C)SC1=S ?
// result active

// query Would you mind telling me which call this test gave CN1CCN(CCCNC(=O)C2CCN(c3nnc(-n4cccc4)s3)CC2)CC1 ?
// result inactive

// query Would you mind telling me which call this test gave O=c1c(-c2ccccc2)nc2cnc(N3CCOCC3)nc2n1C[C@H]1CCCO1 ?
// result inactive

// query Would you mind telling me which call this test gave CCn1nc(C)c(NC(=O)/C=C/c2cnn(C)c2C)c1C ?
// result inactive

// query Would you mind telling me which call this test gave COC(=O)C(Cc1ccc(OC(=O)c2ccc(C(F)(F)F)cc2)cc1)N1Cc2ccccc2C1=O (stereo unspecified) ?
// result active

// query Would you mind telling me which call this test gave Nc1ncc(-c2ccccc2)n1CC1CCCO1 (stereo unspecified) ?
// result active

// query Would you mind telling me which call this test gave COC(=O)C(Cc1ccc(OC(=O)c2ccc(Cl)cc2)cc1)N1Cc2ccccc2C1=O (stereo unspecified) ?
// result active

// query Would you mind telling me which call this test gave O=c1cnc2cnc(Nc3ccccc3)nc2n1C[C@H]1CCCO1 ?
// result inactive

// query Would you mind telling me which call this test gave COc1ccc(Br)cc1/C=C/C(=O)Nc1c(C)cccc1C ?
// result active

###

TEST_TARGET: Cytochrome P450 2C19 (Homo sapiens) (UniProt P33261)
ASSAY: Cytochrome panel assay with activity outcomes
EXPERIMENTAL_PARAMETERS: recombinant CYP, pro-luciferin dealkylation, luminescence, p450-cyp2c19; series mostly up to 57.1 µM
Out of some 16,000 compounds screened, about 5,800 (36%) were called active. About 23% were inconclusive and are not listed. This is one part of the list.
MEASURED_ATTRIBUTE: AC50

COMPOUND	AC50
Cc1ccccc1OCC(=O)N/N=C1\CCOc2c(C)cccc21	inactive
CN1CCN(c2ncncc2-c2ccc(C(=O)N(C)C)cc2)CC1	inactive
c1csc(CNc2ncncc2-c2ccc3c(c2)OCO3)c1	0.794 µM (active)
CS(=O)(=O)Nc1cccc(-c2cncnc2-n2ccnc2)c1	inactive
CN(C)C(=O)c1ccc(-c2ccc3ncnc(N4CCNCC4)c3c2)cc1	inactive
Cc1noc(C)c1C(=O)N1CCC2(CC1)CN(c1ncccn1)C2	inactive

// query Hello, please tell me recorded AC50 for this one: c1cncc(-c2cncnc2-n2ccnc2)c1
// result inactive

// query Hello, please tell me recorded AC50 for this one: O=C(c1ccco1)N(CCC(c1ccccc1)c1ccco1)Cc1ccco1 (configuration not stated)
// result 3.98 µM (active)

// query Hello, please tell me recorded AC50 for this one: COc1ccc(C(=O)N/N=C/c2cccc3cccnc23)cc1
// result 28.2 µM (active)

// query Hello, please tell me recorded AC50 for this one: Cc1cccc2c1OCC/C2=N\NC(=O)COc1ccccc1
// result 3.16 µM (active)

// query Hello, please tell me recorded AC50 for this one: OCCN=C1CCCc2c1[nH]c1ccc(Br)cc21
// result inactive

// query Hello, please tell me recorded AC50 for this one: Cc1cccc(Sc2c([N+](=O)[O-])ncn2C)n1
// result inactive

###

TEST_TARGET: Cytochrome P450 2C19 (Homo sapiens) (UniProt P33261)
ASSAY: Cytochrome panel assay with activity outcomes
EXPERIMENTAL_PARAMETERS: recombinant CYP, pro-luciferin dealkylation, luminescence, p450-cyp2c19; series mostly up to 57.1 µM
Among all 16,000 compounds or so, about 5,800 (36%) were called active. Roughly 23% stayed inconclusive and do not appear here. The list shows a part of the results.
MEASURED_ATTRIBUTE: AC50

Past entries and their recorded results:
COMPOUND	AC50
O=C(COc1ccc2ccccc2c1Br)NNC(=O)Nc1ccccc1	3.55 µM (active)
COc1cccc(Cn2c(=O)c(-c3cccs3)nc3cnc(Nc4cccc(OC)c4)nc32)c1	inactive
CCOC(=O)c1c(NC(=O)CCc2ccc(CC)o2)sc(C)c1C	5.62 µM (active)
COc1cccc(Nc2ncc3nc(-c4cccs4)c(=O)n(Cc4cccs4)c3n2)c1	inactive
COC(=O)C/C=C\[C@@H](C)[C@@H](/C=N\O[C@@H](C)c1cc(-c2c(C)cc(C)cc2C)no1)NS(=O)(=O)c1ccc(C)cc1	3.16 µM (active)

// query Return reported AC50 for target or system Cytochrome P450 2C19 (Homo sapiens) (UniProt P33261), item CN(C)c1ccc(N=Cc2nc(-c3ccccc3)oc2O)cc1 .
// result 1.78 µM (active)

// query Return reported AC50 for target or system Cytochrome P450 2C19 (Homo sapiens) (UniProt P33261), item O=C1c2ccccc2C(=O)c2c(NC3CCCCC3)ccc(Nc3ccc(S(=O)(=O)O)cc3)c21 .
// result 3.98 µM (active)

// query Return reported AC50 for target or system Cytochrome P450 2C19 (Homo sapiens) (UniProt P33261), item CCOC(=O)c1c(NC(=O)CSc2nnnn2C)sc(C)c1C .
// result 10 µM (active)

// query Return reported AC50 for target or system Cytochrome P450 2C19 (Homo sapiens) (UniProt P33261), item Cc1onc(-c2ccccc2)c1C(=O)NCCc1c[nH]c2ccccc12 .
// result 1.78 µM (active)

// query Return reported AC50 for target or system Cytochrome P450 2C19 (Homo sapiens) (UniProt P33261), item COC(=O)c1ccc(/C=N\NC(=O)c2ccc(C)cc2Cl)cc1 .
// result 5.01 µM (active)

// query Return reported AC50 for target or system Cytochrome P450 2C19 (Homo sapiens) (UniProt P33261), item COc1cc(/C=C(\C#N)C(N)=O)cc(CSc2nc3ccccc3s2)c1O .
// result 3.16 µM (active)

// query Return reported AC50 for target or system Cytochrome P450 2C19 (Homo sapiens) (UniProt P33261), item CCn1cc(C(=O)O)c(=O)c2cc(F)c(N3CCN[C@@H](C)C3)c(F)c21 .
// result inactive

// query Return reported AC50 for target or system Cytochrome P450 2C19 (Homo sapiens) (UniProt P33261), item Cn1cccc1C(=O)N1CCC[C@@]2(CCN(Cc3ccc(C#N)cc3)C2)C1 .
// result inactive

// query Return reported AC50 for target or system Cytochrome P450 2C19 (Homo sapiens) (UniProt P33261), item O=C(c1ccc(Oc2ccc(C(F)(F)F)cn2)cc1)N1CCN(c2ccccc2)CC1 .
// result 10 µM (active)

// query Return reported AC50 for target or system Cytochrome P450 2C19 (Homo sapiens) (UniProt P33261), item CCOC(=O)N1CCN(C(=O)C(CC)n2nc(C)c3sc4ccccc4c3c2=O)CC1 (stereo not drawn) .
// result 20 µM (active)

// query Return reported AC50 for target or system Cytochrome P450 2C19 (Homo sapiens) (UniProt P33261), item COc1cccc(C(C(=O)Nc2ccc(F)cc2)N(C(=O)Cn2nnc3ccccc32)C2CC2)c1 (stereo not drawn) .
// result 20 µM (active)

// query Return reported AC50 for target or system Cytochrome P450 2C19 (Homo sapiens) (UniProt P33261), item Clc1ccccc1-c1nc(-c2ccccc2)n[nH]1 .
// result 17.8 µM (active)

// query Return reported AC50 for target or system Cytochrome P450 2C19 (Homo sapiens) (UniProt P33261), item CO/N=C\[C@@H](NS(=O)(=O)c1ccc(C)cc1)[C@H](C)/C=C\CC(=O)OC .
// result 3.16 µM (active)

// query Return reported AC50 for target or system Cytochrome P450 2C19 (Homo sapiens) (UniProt P33261), item Cc1cc(NC(=O)COc2ccc(Cl)cc2Cl)n(-c2ccccc2)n1 .
// result 1.12 µM (active)

// query Return reported AC50 for target or system Cytochrome P450 2C19 (Homo sapiens) (UniProt P33261), item Nc1ccc(O)c(C(=O)O)c1 .
// result 5.01 µM (active)

// query Return reported AC50 for target or system Cytochrome P450 2C19 (Homo sapiens) (UniProt P33261), item NS(=O)(=O)c1cc(Cl)c(Cl)c(S(N)(=O)=O)c1 .
// result inactive

// query Return reported AC50 for target or system Cytochrome P450 2C19 (Homo sapiens) (UniProt P33261), item Nc1ccc(S(=O)(=O)NCc2nccs2)cc1 .
// result 0.0794 µM (active)

// query Return reported AC50 for target or system Cytochrome P450 2C19 (Homo sapiens) (UniProt P33261), item Oc1oc(-c2ccccc2)nc1C=Nc1ccccc1 .
// result 3.98 µM (active)

Each recorded value in this set is attributed to PubChem BioAssay AID1851.
